Entry source: patent US20230002499A1

- Assay system: T1, full-length human OX40 expressed on HuT78/OX40 cells (human, UniProt P43489 29-277)
- T1 sequence: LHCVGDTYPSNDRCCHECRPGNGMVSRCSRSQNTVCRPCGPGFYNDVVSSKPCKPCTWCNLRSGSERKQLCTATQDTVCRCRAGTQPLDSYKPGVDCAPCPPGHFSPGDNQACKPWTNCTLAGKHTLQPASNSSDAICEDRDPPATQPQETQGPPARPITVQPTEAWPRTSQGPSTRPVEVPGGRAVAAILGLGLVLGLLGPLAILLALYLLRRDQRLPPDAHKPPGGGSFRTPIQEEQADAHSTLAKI
- Experimental protocol: flow cytometry on live HuT78/OX40 cells; top of fitted curve
Examples of binders with documented Top (MFI), Mean follow.
Measured parameter: Top (MFI), Mean

[[record]]
binder = "445-2 (antibody, human IgG1, V domains shown) VH: QVQLVQSGAEVKKPGSSVKVSCKASGYKFTSYIIHWVRQAPGQGLEWMGYINPYNEGTRYAQKFQGRVTLTADKSTSTAYMELSSLRSEDTAVYYCARGYYGSSYAMDYWGQGTTVTVSS VL: DIQMTQSPSSLSASVGDRVTITCSASQGISNYLNWYQQKPGKAIKLLIYDASTLYSGVPSRFSGSGSGTDFTLTISSLQPEDFATYYCQQYSKLPYTFGGGTKVEIK"
measurement_units = "MFI"
val = 620

[[record]]
binder = "445-3 IgG4 (antibody, V domains shown) VH: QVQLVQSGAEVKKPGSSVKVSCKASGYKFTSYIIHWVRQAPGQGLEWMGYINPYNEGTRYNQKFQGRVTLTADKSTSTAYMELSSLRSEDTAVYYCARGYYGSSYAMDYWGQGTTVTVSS VL: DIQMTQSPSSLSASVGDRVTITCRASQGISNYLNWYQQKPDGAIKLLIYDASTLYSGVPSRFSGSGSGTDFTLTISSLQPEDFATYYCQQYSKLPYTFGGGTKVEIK"
measurement_units = "MFI"
val = 892

[[record]]
binder = "445-3 (antibody, human IgG1, V domains shown, Human IgG1 wild type format) VH: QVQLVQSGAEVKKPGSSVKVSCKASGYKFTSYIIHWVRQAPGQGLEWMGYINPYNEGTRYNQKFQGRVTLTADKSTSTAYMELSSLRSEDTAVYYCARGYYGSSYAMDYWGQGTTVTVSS VL: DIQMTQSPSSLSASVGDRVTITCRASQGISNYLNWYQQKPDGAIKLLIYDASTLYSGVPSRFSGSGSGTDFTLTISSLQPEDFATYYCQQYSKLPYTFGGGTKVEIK"
measurement_units = "MFI"
val = 910

[[record]]
binder = "445-1 (antibody, IgG1, V domains shown, Full-length antibody with human wild-type IgG1 (IgG1wt) and kappa constant regions) VH: QVQLVQSGAEVKKPGSSVKVSCKASGYKFTSYIIHWVRQAPGQGLEWMGYINPYNDGTRYNQKFQGRVTLTSDKSTSTAYMELSSLRSEDTAVYYCARGYYGSSYAMDYWGQGTTVTVSS VL: DIQMTQSPSSLSASVGDRVTITCSASQGISNYLNWYQQKPGKAIKLLIYDTSTLYSGVPSRFSGSGSGTDYTLTISSLQPEDFATYYCQQYSKLPYTFGGGTKVEIK"
measurement_units = "MFI"
val = 525

